# Tgt: recombinant human SYK360-635 (Homo sapiens (Human), UniProt P43405)
# Test name: SYK kinase assay (33P ATP filtration, IC50 of SYK inhibition)
# Protocol conditions: truncated SYK aa 360-635 0.5 nM, ATP 20 μM, peptide 5 μM, 30° C. 15 min; read-out: ENZYME_FILTRATION_IC50
# Protocol: Determination of IC50 of Spleen Tyrosine Kinase (SYK) Inhibition: SYK kinase assay is a standard kinase assay adapted to a 96 well plate format. This assay is performed in 96-well format for IC50 determination with […] which represented 10 half log dilutions and a 40 μL reaction volume. […] Phosphorylated products were detected upon termination of reactions with EDTA and the addition of Streptavidin coated beads. […]
Counter-ions that a name gives are not always drawn.
Checkbox rule: IC50 lower than 200 nM = true; IC50 not lower than 200 nM = false.

Solved entries (count: 5):
1. O=C(O)c1cccc(-c2cc(Nc3cccc(N4CCCC4CO)n3)c3nccn3n2)c1 (centres unmarked) [Example I-20]: false
2. CC1CCCN1c1cccc(Nc2cc(-c3ccc(C(=O)NCCc4ccncc4)cc3)nn3ccnc23)n1 (centres unmarked) [Example I-16]: true
3. O=C(O)c1cccc(-c2cc(Nc3cccc(N4CCCC4)n3)c3nccn3n2)c1 [Example I-22, hydrochloride]: false
4. CC1CCCN1c1cccc(Nc2cc(-c3ccc(O)cc3)nn3ccnc23)n1 (centres unmarked) [Example I-77]: true
5. CC1CCCN1c1cccc(Nc2cc(-c3ccc4cn[nH]c4c3)nn3ccnc23)n1 (centres unmarked) [Example I-19]: true

Lab note: confirm whether the reported IC50 for this compound is below 200 nM, equality not counting. compound: CC1CCCN1c1cccc(Nc2cc(-c3cccc(O)c3)nn3ccnc23)n1 (centres unmarked) [Example I-86]
true

Lab note: confirm whether the reported IC50 for this compound is below 200 nM, equality not counting. compound: CC1CCCN1c1cccc(Nc2cc(-c3cccc(C(=O)NCCN(C)C)c3)nn3ccnc23)n1 (centres unmarked) [Example I-46]
true

Lab note: confirm whether the reported IC50 for this compound is below 200 nM, equality not counting. compound: COc1cc(NC(=O)c2cccc(-c3cc(Nc4ccc(OC)c(OC)n4)c4nccn4n3)c2)ccc1C(=O)O [Example I-57]
true

Lab note: confirm whether the reported IC50 for this compound is below 200 nM, equality not counting. compound: COc1ccc(Nc2cc(-c3ccccc3)nn3ccnc23)nc1OC [Example I-44]
true

---

# Tgt: recombinant human SYK360-635 (Homo sapiens (Human), UniProt P43405)
# Test name: SYK kinase assay (33P ATP filtration, IC50 of SYK inhibition)
# Protocol conditions: truncated SYK aa 360-635 0.5 nM, ATP 20 μM, peptide 5 μM, 30° C. 15 min; read-out: ENZYME_FILTRATION_IC50
Counter-ions that a name gives are not always drawn.
Quantity: IC50 (µM)
Express it in µM; write the number only.

1) CC(C)(C)C1CCN(c2cccc(Nc3cc(-c4cccc(C(N)=O)c4)nn4ccnc34)n2)C1 (stereo not drawn): 0.28
2) COc1ccc(Nc2cc(-c3ccc(C(=O)NCCc4cc[nH]c(=O)c4)cc3)nn3ccnc23)nc1OC: 0.187
3) CC1CCCN1c1cccc(Nc2cc(-c3cccc(C(=O)N4CCOCC4)c3)nn3ccnc23)n1 (stereo not drawn): 0.219

For the next question, use this compound.
Measured IC50 (recombinant human SYK360-635 (Homo sapiens (Human), UniProt P43405)), entry CCC1CCCN1c1cccc(Nc2cc(-c3ccccc3)nn3ccnc23)n1 (stereo not drawn) [Example I-30, hydrochloride] : 1.96
